# Target Or Test System: T1, 4H454-AA
# T1 chain: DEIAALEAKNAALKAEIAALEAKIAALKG
# Assay Notes: two-hybrid library CCmax;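 also: natural log of median RNA to DNA barcode read ratio; higher means stronger binding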
# Applied Conditions: mean of both orientations
Rule: 1 for interaction score not less than -0.6, 0 for anything less.

Recorded results for 3 binders are shown here.
Problem: Is interaction score at least -0.6? Consider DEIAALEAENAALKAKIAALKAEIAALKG [4H234-AA]
Solution: 1

Problem: # bool: interaction score of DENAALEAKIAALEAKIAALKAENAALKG [4H1324-AA] >= -0.6
Solution: 0

Problem: Is it the case that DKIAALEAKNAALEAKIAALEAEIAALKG [4H2466-AA] has interaction score reaching or exceeding -0.6?
Solution: 1

Next:
Problem: Is interaction score at least -0.6? Consider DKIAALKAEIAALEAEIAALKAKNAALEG [4H2575-AA]
Solution: 1

Problem: interaction score >= -0.6 for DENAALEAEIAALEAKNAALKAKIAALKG [4H1086-AA] ?
Solution: 0

Problem: interaction score >= -0.6 for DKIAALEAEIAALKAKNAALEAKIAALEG [4H2165-AA] ?
Solution: 1

Problem: // inclusive: interaction score at least -0.6? input: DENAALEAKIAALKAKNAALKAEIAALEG [4H1401-AA]
Solution: 0
